List of Cmax values.
- test-method-notes: Cmax in Sprague-Dawley rat at 10 mg/kg, po
- Type: ADME, organism-based
- Set-up: dose 10 mg/kg, route oral
- conditions-used: in vivo
Unit ng/mL implied. Number only.

Known Cmax results, listed for orientation:
COc1c(NC(=O)c2cc3cccc(NC(=O)c4cccnc4)c3s2)cc(C(C)(C)C)cc1NS(C)(=O)=O    5200
Cc1ccc(-n2nc(C(C)(C)C)cc2NC(=O)Nc2ccc(OCCN3CCOCC3)c3ccccc23)cc1 [DORAMAPIMOD]    10900
COc1c(NC(=O)c2cc3cccc(NC(=O)c4cccnc4)c3n2C)cc(C(C)(C)C)cc1NS(C)(=O)=O    9000
COc1c(NC(=O)c2cc3cccc(NC(=O)c4ccc(NC5CC5)nc4)c3n2C)cc(C(C)(C)C)cc1NS(C)(=O)=O    14000

[in] What value of Cmax has been recorded for this entry: COc1c(NC(=O)c2cc3cccc(NC(=O)c4ccc(NC5CC5)nc4)c3s2)cc(C(C)(C)C)cc1NS(C)(=O)=O
[out] 2400

* * *

List of log10(clearance) values.
- test-method-notes: Clearance in Sprague-Dawley rat at 1 mg/kg, iv
- Format: ADME, organism-based
- Parameters: dose 1 mg/kg, route intravenous
- conditions-used: in vivo
Form field - Quantity: clearance; Unit: mL/min/kg; Scale: log10

COc1c(NC(=O)c2cc3cccc(NC(=O)c4ccc(NC5CC5)nc4)c3s2)cc(C(C)(C)C)cc1NS(C)(=O)=O    0.60

[in] What value of log10(clearance) has been recorded for this entry: COc1c(NC(=O)c2cc3cccc(NC(=O)c4ccc(NC5CC5)nc4)c3n2C)cc(C(C)(C)C)cc1NS(C)(=O)=O
[out] 0.70

[in] Next molecule up: COc1c(NC(=O)c2cc3cccc(NC(=O)c4cccnc4)c3s2)cc(C(C)(C)C)cc1NS(C)(=O)=O
[out] 1.28

[in] Next molecule up: COc1c(NC(=O)c2cc3cccc(NC(=O)c4cccnc4)c3n2C)cc(C(C)(C)C)cc1NS(C)(=O)=O
[out] 0.48

[in] Next molecule up: Cc1ccc(-n2nc(C(C)(C)C)cc2NC(=O)Nc2ccc(OCCN3CCOCC3)c3ccccc23)cc1
[out] 0.23

* * *

- test-method-notes: Bioavailability in Sprague-Dawley rat at 10 mg/kg, po
- Format: ADME, organism-based
- conditions-used: in vivo
observation-type: bioavailability (%)
Unit % implied. Number only.

[in] What value of bioavailability has been recorded for this entry: COc1c(NC(=O)c2cc3cccc(NC(=O)c4ccc(NC5CC5)nc4)c3n2C)cc(C(C)(C)C)cc1NS(C)(=O)=O
[out] 51

[in] Next molecule up: COc1c(NC(=O)c2cc3cccc(NC(=O)c4cccnc4)c3s2)cc(C(C)(C)C)cc1NS(C)(=O)=O
[out] 57

[in] Next molecule up: COc1c(NC(=O)c2cc3cccc(NC(=O)c4ccc(NC5CC5)nc4)c3s2)cc(C(C)(C)C)cc1NS(C)(=O)=O
[out] 51

[in] Next molecule up: Cc1ccc(-n2nc(C(C)(C)C)cc2NC(=O)Nc2ccc(OCCN3CCOCC3)c3ccccc23)cc1 [DORAMAPIMOD]
[out] 76

[in] Next molecule up: COc1c(NC(=O)c2cc3cccc(NC(=O)c4cccnc4)c3n2C)cc(C(C)(C)C)cc1NS(C)(=O)=O
[out] 90

Reference source for all entries: ChEMBL document CHEMBL1148722
